B1: minF1; a variant is named by its letters at N, in order (parent)
chain: GAGACCGCAACTGAAAAGTTGTTNNNNAANNNNNGGNTNAATTTCTGCACGTAGAAGCAAAAGGC

Variants of: B1
Assay: fraction ligated after 30 min (ligated reads / total reads); higher = more ligase activity
Conditions: with F1*subA RNA substrate (template-directed ligation), 42 °C

{"mutant-code": "TCAGAGGATTG T23A", "fraction ligated": 0.00302}
{"mutant-code": "ACGATGGAGTG", "fraction ligated": 0.00302}
{"mutant-code": "ATCATGGTGTG A28G", "fraction ligated": 0.00296}

Provenance of the data: the supplement of paper PMC6755084
